Below is a list of entries, each paired with its recorded TGI value.
# Test system: A549 NSCLC
# test.summary: NCI tumour cell line growth inhibition, 48 h
State the answer as a number, implicitly in µM.

# count of solved cases: 3
- molecule: "Oc1[nH]c2ccccc2c1N=NC(=S)NCc1ccccn1"
  TGI, µM: 13.7
- molecule: "CO[C@H]1/C=C/C=C/C=C/C[C@H](OC(=O)[C@@H](C)NC(=O)C2CCCCC2)[C@H](C)[C@@H](O)/C(C)=C\\CCC2=CC(=O)C=C(NC(=O)C1)C2=O"
  TGI, µM: 1.92
- molecule: "CC1C/C(=C\\c2ccc(O)c(O)c2)C(=O)/C(=C/c2ccc(O)c(O)c2)C1 (stereo not given)"
  TGI, µM: 32.8

stdin: For the molecule shown here, O=C(N(C1=CCCC1)N(c1ccccc1)c1ccccc1)C(F)(F)F , give the reported TGI.
stdout: 98.4

====

# Test system: SF-295 CNS
# test.summary: NCI tumour cell line growth inhibition, 48 h
assay.metric: TGI

- compound: "CC(C)S(=O)(=O)ON1C(=O)c2ccc([N+](=O)[O-])cc2C1=O"
  TGI: "> 100 µM"
- compound: "C[C@@H]1CC(=O)[C@@]2(C)[C@](O)(CCC3O[C@]32C)[C@@]12CC(c1ccoc1)OC2=O (stereo not given in full)"
  TGI: "> 100 µM"
- compound: "CN(C)CC(C)(C)C(=O)/C=C/c1ccccc1"
  TGI: "33.2 µM"
- compound: "CC(=O)[O-].CC(=O)[O-].CC(=O)[O-].CC(=O)[O-].CO.CO.CO.[Rh+2].[Rh+2].c1ccc(-c2ccccn2)nc1"
  TGI: "> 100 µM"
- compound: "CC1C/C(=C\\c2ccc(O)c(O)c2)C(=O)/C(=C/c2ccc(O)c(O)c2)C1 (stereo not given)"
  TGI: "27.7 µM"
- compound: "O=C(O)CNCc1c2ccccc2nc2ccccc12"
  TGI: "> 100 µM"
- compound: "[O-][n+]1cc(SCc2ccccc2)ncc1SCc1ccccc1"
  TGI: "> 10 µM"
- compound: "CCc1cc(Nc2nccc(-c3c(-c4ccc(OC)c(C(=O)Nc5c(F)cccc5F)c4)nc4ccccn34)n2)c(OC)cc1N1CCC(N2CCN(S(C)(=O)=O)CC2)CC1"
  TGI: "> 100 µM"
- compound: "c1ccc(-c2nn(-c3ccccc3)[n+](-c3ccccc3-c3ccccc3)n2)cc1"
  TGI: "8.99 µM"

stdin: Return reported TGI; argument: CC(=O)OC1COC(n2c(N)c(C#N)c(-c3ccccc3)c(C#N)c2=S)C(OC(C)=O)C1OC(C)=O (stereo not given)
stdout: > 100 µM

====

# Test system: U251 CNS
# test.summary: NCI tumour cell line growth inhibition, 48 h
assay.metric: TGI (µM)
Return type: number; implicit unit µM.

Illustrative cases are given below, each with its answer.
- compound: "COc1cccc(C2N3CCCCC3[C@@H]3c4[nH]c5ccccc5c4CCN23)c1OC (stereo not given in full)"
  assayed.system: "U251 CNS"
  experimental.result: 30.9
- compound: "CCOC(=O)Nc1ccc2nc(Sc3ccc(Cl)cc3)sc2c1"
  assayed.system: "U251 CNS"
  experimental.result: 44.6
- compound: "Cc1c(-c2ccnc(N)n2)c2c(n1-c1ccccc1)C(=O)c1ccccc1C2=O"
  assayed.system: "U251 CNS"
  experimental.result: 74.9

Now turn to the next compound.
stdin: What TGI appears in the records for this compound with U251 CNS? CC(=O)O[C@H]1CC[C@]2(C=O)[C@H]3CC[C@]4(C)[C@@H](C5=CC(=O)OC5)CC[C@]4(O)[C@@H]3CC[C@]2(O)C1
stdout: 0.559

====

# System: HOP-62 NSCLC
# test.summary: NCI tumour cell line growth inhibition, 48 h
assay.metric: TGI

- molecule: "CC(=O)[O-].CC(=O)[O-].CC(=O)[O-].CC(=O)[O-].CO.CO.CO.[Rh+2].[Rh+2].c1ccc(-c2ccccn2)nc1"
  TGI: "> 100 µM"
- molecule: "N#Cc1c(NC(=S)Nc2ccccc2)sc2c1CCCC2"
  TGI: "> 100 µM"
- molecule: "CCN1CCN(c2nc(NNC(=O)c3cccc(OC)c3)nc(N3CCN(C(c4ccccc4)c4ccccc4)CC3)n2)CC1"
  TGI: "23.5 µM"
- molecule: "Cc1cc(=O)oc2c(CN(CCCl)CCCl)c(O)ccc12"
  TGI: "> 100 µM"
- molecule: "C=C1CC2C[C@H](OS(=O)(=O)c3ccc(C)cc3)C(C1)N2C (stereo not given in full)"
  TGI: "> 100 µM"

stdin: For the molecule shown here, CCN(CC)CCn1nc2c3c(cccc3c1=O)-c1ccccc1-2 , give the reported TGI.
stdout: 15.9 µM

stdin: And O=C(OCC(OC(=O)c1ccccc1)C1CC(C(O)C2CCCCC2)C(=O)O1)c1ccccc1 (stereo not given) ?
stdout: > 100 µM

====

# TGI listing for each entry below
# Tested on: SW-620 colon
# test.summary: NCI tumour cell line growth inhibition, 48 h
Give the value in µM but do not write µM after it.

The examples below pair each entry with its known result.
- compound: "NC(=S)c1cn(C2OC(CO)C(O)C2O)c2ncnc(N)c12 (stereo unspecified)"
  assayed.system: "SW-620 colon"
  TGI (µM): 0.592
- compound: "CC1C/C(=C\\c2ccc(O)c(O)c2)C(=O)/C(=C/c2ccc(O)c(O)c2)C1 (stereo unspecified)"
  assayed.system: "SW-620 colon"
  TGI (µM): 34.6

Field: next compound
stdin: So what's the measured TGI for this one? CC(=O)O[C@H]1Cc2c([nH]c3ccccc23)[C@@H](c2ccc(Cl)cc2)N1C(=O)CCNC(C)(C)C
stdout: 8.8

====

# System: UACC-62 melanoma
# test.summary: NCI tumour cell line growth inhibition, 48 h
TGI values, listed per item

- compound: "COC(=O)C1=C(C)NC(C)=C(C(=O)OC)C1c1ccccc1[N+](=O)[O-]"
  TGI: "> 100 µM"
- compound: "NS(=O)(=O)c1ccc(N=Nc2cc3ccccc3c(C(=O)O)c2O)cc1"
  TGI: "97 µM"
- compound: "Cc1ccc(S(=O)(=O)N/N=C/CN2C(=O)c3ccccc3C2=O)cc1"
  TGI: "> 100 µM"
- compound: "O=C(N/N=C\\c1cc(Br)cc(Br)c1O)N/N=C/c1cc(Br)cc(Br)c1O"
  TGI: "10.2 µM"
- compound: "Cc1cccc(Cc2cnc(NC(=O)/C=C/c3ccco3)s2)c1"
  TGI: "> 100 µM"

stdin: Entry COc1ccc(C(OCC2OC(n3ccc(Oc4c(F)c(F)c(F)c(F)c4F)nc3=O)CC2OP(OCCC#N)N(C(C)C)C(C)C)(c2ccccc2)c2ccc(OC)cc2)cc1 (stereo unspecified) : reported TGI = ?
stdout: > 100 µM

stdin: Ok, now S=C1NC2=C(CCOc3c2ccc2ccccc32)C(c2ccc(Cl)cc2)N1 (stereo unspecified)
stdout: 76.4 µM

stdin: Also check COc1cc(C)c(S(=O)(=O)N(CCCN)OCCCN)c(C)c1C
stdout: > 100 µM

stdin: What do we get for CCOC(=O)Nc1ccc2nc(Sc3ccc(Cl)cc3)sc2c1 ?
stdout: 48.3 µM

stdin: Another compound: O=C1CSC(c2cc3cc(Br)ccc3nc2Cl)N1c1ccc(F)c(Cl)c1 (stereo unspecified)
stdout: > 50 µM

stdin: Same thing, different compound: O=C(CN1CCN(c2cc3c(cc2F)c(=O)c(C(=O)O)cn3C2CC2)CC1)Nc1ccc(C(=O)/C=C/c2ccccc2)cc1
stdout: > 100 µM

stdin: Moving on to the next compound: NC(=O)c1nnc2c(F)cccc2c1N
stdout: > 100 µM

stdin: // next record CC(C)(C)C1=CC(O)(c2c3ccccc3c(C3(O)C=C(C(C)(C)C)C(=O)C(C(C)(C)C)=C3)c3ccccc23)C=C(C(C)(C)C)C1=O
stdout: > 100 µM

stdin: Now this one: COC1OC(=O)C(OC)C(OC)C1OC (stereo unspecified)
stdout: > 100 µM

stdin: Record: S=C1NNC(=S)NN1
stdout: > 1 µM

stdin: And what about the compound COc1ccc(Cn2nc(OCc3ccccc3)c3cc([N+](=O)[O-])ccc32)cc1 ?
stdout: > 100 µM

stdin: Try COC1OC2COC(c3ccccc3)OC2C(OC(=S)c2ccccc2)C1O (stereo unspecified) next.
stdout: > 100 µM

stdin: Here is the next compound: CN(C)CCSc1nccc(-c2ccc(-c3ccnc(SCCN(C)C)n3)s2)n1
stdout: 29.7 µM

====

# System: A549 NSCLC
# test.summary: NCI tumour cell line growth inhibition, 48 h
assay.metric: TGI

- molecule: "CC(C)(C)C1=CC(O)(c2c3ccccc3c(C3(O)C=C(C(C)(C)C)C(=O)C(C(C)(C)C)=C3)c3ccccc23)C=C(C(C)(C)C)C1=O"
  TGI: "> 100 µM"
- molecule: "CCCCOc1nc2ccccc2cc1C1CNC(=O)c2ccccc2N1 (stereo not drawn)"
  TGI: "15.9 µM"
- molecule: "Cc1cnc2cc(Cl)ccc2c1SCC(=O)O"
  TGI: "> 100 µM"
- molecule: "NC(=S)c1cn(C2OC(CO)C(O)C2O)c2ncnc(N)c12 (stereo not drawn)"
  TGI: "> 100 µM"
- molecule: "CN(C)/C=C/C(=O)c1cccc(C(=O)/C=C/N(C)C)n1"
  TGI: "> 100 µM"
- molecule: "Cc1cccc2c1C(=O)/C(=C/c1ccccc1C(=O)O)C2"
  TGI: "> 100 µM"
- molecule: "CC1CN=C(N(C(=O)Nc2ccccc2)C2CCCCC2)S1 (stereo not drawn)"
  TGI: "34.2 µM"

Now let's try a different one.
stdin: Suppose we examine the molecule COc1ccc(OC)c(/C=C/C(=O)c2ccc(SC)cc2)c1 ; what TGI value has been reported?
stdout: > 100 µM
